Target: T1, H6NA3 (UniProt P06731 35-144; P06731 499-590, limits assumed)
T1 construct: domain: N domain;domain: A3 domain; recombinant truncated target
T1 sequence: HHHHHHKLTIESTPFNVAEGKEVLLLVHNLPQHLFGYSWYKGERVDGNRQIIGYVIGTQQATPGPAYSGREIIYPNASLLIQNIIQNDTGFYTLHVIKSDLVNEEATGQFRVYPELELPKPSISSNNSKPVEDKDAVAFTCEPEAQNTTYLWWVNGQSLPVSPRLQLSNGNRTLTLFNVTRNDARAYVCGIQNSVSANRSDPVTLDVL
Assay: fluorescence anisotropy, direct binding
Ends that are not written are not given here. fluorescein = fluorescein label attached through NHS-fluorescein to the ε-amino side group of the C-terminal lysine
Each record here notes measured pKd.
# pKd is unitless: minus log10 of the molar concentration; print number only

# example entries with known answers
{"columns": ["binder", "measurement_label", "value"],
 "data": [
  ["SDWVCENKKDQWTCNLLAPGGEGGGSK(fluorescein)-NH2 (not fully specified (bridges); printed as SDWVCENKKDQWTCNLLAPGGEGGGSK-CONH2; cysteine pairing not given here; also: fluorescein on C-terminal Lys ε-amino in labelled aliquots, synthetic 27-mer) [P-A07]", "pKd", 5.23],
  ["SDWVCELTTGGYVCQPLAPGGEGGGSK(fluorescein)-NH2 (not fully specified (bridges); printed as SDWVCELTTGGYVCQPLAPGGEGGGSK-CONH2; cysteine pairing not given here; also: fluorescein on C-terminal Lys ε-amino in labelled aliquots, synthetic 27-mer) [P-B09]", "pKd", 5.22],
  ["SNWDCMFGAEGWACSPWAPGGEGGGSK(fluorescein)-NH2 (not fully specified (bridges); printed as SNWDCMFGAEGWACSPWAPGGEGGGSK-CONH2; cysteine pairing not given here; also: fluorescein on C-terminal Lys ε-amino in labelled aliquots, synthetic 27-mer) [P-E01]", "pKd", 5.16]
]}

Now let's try a different one.
Report measured pKd; entry is SNWVCNLFKNQWFCNSYAPGGEGGGSK(fluorescein)-NH2 (not fully specified (bridges); printed as SNWVCNLFKNQWFCNSYAPGGEGGGSK-CONH2; cysteine pairing not given here; also: fluorescein on C-terminal Lys ε-amino in labelled aliquots, synthetic 27-mer; also called Isolate G08 peptide) [P-G08]
5.72

Source of measurements: patent US20030203415A1
